# Protocol Description: inhibitors of TNFa-induced NFkB p65 translocation, primary screen, imaging, HUVEC, MLSMR starter and 10KST1 sets (AID 438);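 note: compound added about 3h40 before a 20 min TNFalpha stimulation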
# Settings: HUVEC TNFa-induced p65 nuclear translocation; measured here: nuclei count (cytotoxicity indicator), at 2.08 µM
Measurement Label: cell count
API note: the answer field is a bare number with no unit suffix.

Examples with their reported cell count follow.
# Compound, cell count
data = [
    ("CCOc1ccc(N2CC(C(=O)Nc3ccc(F)cc3F)CC2=O)cc1 (stereo unspecified)", 847),
    ("CCOc1ccc(OCc2ccc(C(=O)Nc3cccc(C)n3)o2)cc1", 731),
    ("c1cncc(-c2nnc(-c3ccco3)o2)c1", 383),
    ("CCCCCCC(=O)c1c(C)[nH]c(C(=O)OCC)c1C", 310),
    ("CCc1ccc2oc(-c3cc(N)ccc3Cl)nc2c1", 563),
]

Next up:
Exercise: Recorded cell count of O=C(Nc1ccc2c(c1)OCO2)C1CCCN1C(=O)Nc1ccccc1F (stereo unspecified) , please.
Key: 432

* * *

Measured inhibition of individual entries
# Protocol Description: endothelial E-selectin expression blockers – imaging, HUVEC, immunofluorescence, MLSMR starter and 10KST1 sets, primary screen (AID 487);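 note: signal is fraction of cell area covered by stained E-selectin grains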
# Settings: HUVEC TNFalpha-induced E-selectin immunofluorescence imaging, at 2 µM; stronger effect = higher value
Form entry: value (%) — number only.

# Compound, Quantity Unit, Assay Result
measured = [
    ("Cc1ccc(S(=O)(=O)NCC2CCC(C(=O)NCCCN3CCOCC3)CC2)cc1 (configuration not stated)", "%", -24.4),
    ("CC(C)CCNC(=O)NC(=O)CN1C(=O)NC2(CCCCC2)C1=O", "%", -209),
    ("CC1(C)O[C@@H]2C[C@H]3[C@@H]4C[C@H](F)C5=CC(=O)C=C[C@]5(C)[C@@]4(F)[C@@H](O)C[C@]3(C)[C@]2(C(=O)CO)O1", "%", -6.4),
    ("c1ccc2c(c1)ccc1nnc(-c3ccc4c(c3)OCO4)n12", "%", -25.6),
    ("Cc1sc2nc(SCC(=O)NCc3ccco3)n(CCc3ccccc3)c(=O)c2c1C", "%", -45.3),
    ("CCCc1nnc(SCc2ccc(OCC)cc2)n1N", "%", -86),
    ("Cc1ccc(-n2nnnc2SCC(=O)N2CCc3ccccc3C2)cc1", "%", -28.6),
    ("CCn1c2ccccc2c2cc(NC(=O)CSc3nnc(C4CC4)n3Cc3ccco3)ccc21", "%", 36.4),
    ("COc1ccc(-c2nn3c(-c4ccncc4)nnc3s2)cc1OC", "%", 24.6),
    ("Cc1ccc(C(=O)CCC2CCCC2=O)cc1 (configuration not stated)", "%", 22.6),
]

Exercise: # query: inhibition of entry `COc1cc(NC(=O)c2cc(-n3cnnc3)ccc2Cl)cc(OC)c1`
Key: -46.1

Exercise: Bench note: what inhibition did `CCOc1ccc2cc(C#N)c(SCC(=O)N3CCCC3)nc2c1` show?
Key: -32

* * *

Here the recorded inhibition is given for each entry.
# Target Of Assay: Dual specificity protein phosphatase 6 (Homo sapiens) (UniProt Q16828)
# Sequence (Q16828 whole entry, looked up): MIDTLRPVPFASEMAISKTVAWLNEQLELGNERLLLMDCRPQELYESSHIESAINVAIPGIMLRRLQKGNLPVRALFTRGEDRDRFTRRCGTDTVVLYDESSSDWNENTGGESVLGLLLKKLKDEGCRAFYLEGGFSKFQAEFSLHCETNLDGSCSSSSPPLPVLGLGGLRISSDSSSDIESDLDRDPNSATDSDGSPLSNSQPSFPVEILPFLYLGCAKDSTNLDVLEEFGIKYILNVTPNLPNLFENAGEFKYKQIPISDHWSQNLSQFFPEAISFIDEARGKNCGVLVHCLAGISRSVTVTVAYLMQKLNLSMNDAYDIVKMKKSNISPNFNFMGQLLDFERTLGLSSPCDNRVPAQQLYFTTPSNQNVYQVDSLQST
# Protocol Description: Primary imaging screen for DUSP6 inhibitors that restore phospho-Erk in transfected HeLa cells, chemical complementation (AID 609);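 note: phospho-Erk level distribution per well compared with pooled transfected vehicle control wells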
# Settings: HeLa MKP-3 transfected, phospho-Erk imaging KS statistic; at 10 µM; stronger effect = higher value; cells stimulated with TPA for 15 min
Quick reminder: number only, in %, skip the unit.

Previously resolved entries follow.
# Compound, inhibition, %
rows = [
    ("O=C(c1ccc(N2C(=O)C3CC=C(Cl)CC3C2=O)cc1)N1CCCCC1 (stereo unspecified)", 15.1),
    ("COc1cc2nc(N3CCN(C(=O)C4CCCO4)CC3)nc(N)c2cc1OC (stereo unspecified)", 16.8),
    ("CCn1cc(C(=O)O)c(=O)c2ccc(C)nc21", 5.42),
    ("Cc1cccc(Nc2ccccc2C(=O)O)c1C", 19),
    ("O=C1NC(=O)C(c2ccccc2)(c2ccccc2)N1", 3.59),
]

Now for a further compound.
Exercise: Fill in the blank: the reported inhibition of `O=P(Cc1nnco1)(c1ccccc1)c1ccccc1` is ____.
Key: -3.98

Source: PubChem BioAssay
